- Measured target: IgG Control
- Test details: ELISA screen of scFv clones, plate panel 'IgG Control'
Measured endpoint: ELISA OD450

**Query** What measured ELISA OD450 goes with CD26-12D scFv (scFv, part only; not given: VL-VH linker and detection tag, V domains shown, not shown: another chain or arm of the molecule; small tags and cut ends) VL: DIQMTQSPSSLSASVGDRVTITCRASQDVYSWVAWYQQKPGKAPKLLIYGPGSLYSGVPSRFSGSGSGTDFTLTISSLQPEDFATYYCQQYYNYPLTFGQGTKVEIK VH: EVQLVESGGGLVQPGGSLRLSCAASGFTINSSYIHWVRQAPGKGLEWVAGIGPYWGFTSYADSVKGRFTISADTSKNTAYLQMNSLRAEDTAVYYCARFYSSYGFMDYWGQGTLVTVSS ?
**Result** 0.051
